ASSAY_PROCEDURE: log P by HPLC on a reversed-phase column (C18), EEC Directive 79/831 Annex V.A8
Assay type: physicochemical
EXPERIMENTAL_CONDITIONS: reversed-phase C18 HPLC column; printed after the preparation step; method not restated
READOUT: chromatographic logP

{"QUERY_SMILES": "Cc1ccc(S(=O)(=O)n2cc(F)c(=N)n(C)c2=O)cc1", "chromatographic logP": 1.26}
{"QUERY_SMILES": "Cc1ccc(S(=O)(=O)n2cc(F)c(N)nc2=O)cc1", "chromatographic logP": 1.45}
